Data origin: patent US11306079B2

Molecular target: PI3Kδ (p110δ/p85α) Recombinant Human Protein (Homo sapiens (Human), UniProt O00329)
Sequence (O00329 whole entry): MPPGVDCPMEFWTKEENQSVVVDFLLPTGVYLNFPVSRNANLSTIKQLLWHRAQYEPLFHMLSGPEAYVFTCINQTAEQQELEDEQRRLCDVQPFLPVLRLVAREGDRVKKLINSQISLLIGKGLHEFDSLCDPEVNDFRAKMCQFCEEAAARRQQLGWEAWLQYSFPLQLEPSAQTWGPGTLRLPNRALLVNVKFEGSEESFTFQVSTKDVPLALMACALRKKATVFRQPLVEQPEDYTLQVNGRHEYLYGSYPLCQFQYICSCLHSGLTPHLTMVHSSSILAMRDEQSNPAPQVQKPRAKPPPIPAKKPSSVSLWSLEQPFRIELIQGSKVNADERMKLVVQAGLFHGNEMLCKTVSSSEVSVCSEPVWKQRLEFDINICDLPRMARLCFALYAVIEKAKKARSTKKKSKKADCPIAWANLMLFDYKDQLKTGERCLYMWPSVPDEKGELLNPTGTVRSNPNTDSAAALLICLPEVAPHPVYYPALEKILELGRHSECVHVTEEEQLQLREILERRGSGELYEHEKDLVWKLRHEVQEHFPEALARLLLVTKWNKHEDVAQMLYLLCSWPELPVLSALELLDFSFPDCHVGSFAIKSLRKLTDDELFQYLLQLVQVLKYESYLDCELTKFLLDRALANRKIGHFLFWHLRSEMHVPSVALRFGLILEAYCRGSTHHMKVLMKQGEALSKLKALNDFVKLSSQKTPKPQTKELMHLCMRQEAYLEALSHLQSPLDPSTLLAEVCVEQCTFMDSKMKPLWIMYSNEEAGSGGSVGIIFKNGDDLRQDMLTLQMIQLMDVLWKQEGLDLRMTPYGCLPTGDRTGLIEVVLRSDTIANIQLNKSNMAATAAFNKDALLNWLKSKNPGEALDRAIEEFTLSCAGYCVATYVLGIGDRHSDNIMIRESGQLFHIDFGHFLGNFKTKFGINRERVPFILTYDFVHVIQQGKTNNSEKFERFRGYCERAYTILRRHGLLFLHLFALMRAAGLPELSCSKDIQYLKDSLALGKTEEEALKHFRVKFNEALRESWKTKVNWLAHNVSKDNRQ
Sequence (P27986 whole entry partner): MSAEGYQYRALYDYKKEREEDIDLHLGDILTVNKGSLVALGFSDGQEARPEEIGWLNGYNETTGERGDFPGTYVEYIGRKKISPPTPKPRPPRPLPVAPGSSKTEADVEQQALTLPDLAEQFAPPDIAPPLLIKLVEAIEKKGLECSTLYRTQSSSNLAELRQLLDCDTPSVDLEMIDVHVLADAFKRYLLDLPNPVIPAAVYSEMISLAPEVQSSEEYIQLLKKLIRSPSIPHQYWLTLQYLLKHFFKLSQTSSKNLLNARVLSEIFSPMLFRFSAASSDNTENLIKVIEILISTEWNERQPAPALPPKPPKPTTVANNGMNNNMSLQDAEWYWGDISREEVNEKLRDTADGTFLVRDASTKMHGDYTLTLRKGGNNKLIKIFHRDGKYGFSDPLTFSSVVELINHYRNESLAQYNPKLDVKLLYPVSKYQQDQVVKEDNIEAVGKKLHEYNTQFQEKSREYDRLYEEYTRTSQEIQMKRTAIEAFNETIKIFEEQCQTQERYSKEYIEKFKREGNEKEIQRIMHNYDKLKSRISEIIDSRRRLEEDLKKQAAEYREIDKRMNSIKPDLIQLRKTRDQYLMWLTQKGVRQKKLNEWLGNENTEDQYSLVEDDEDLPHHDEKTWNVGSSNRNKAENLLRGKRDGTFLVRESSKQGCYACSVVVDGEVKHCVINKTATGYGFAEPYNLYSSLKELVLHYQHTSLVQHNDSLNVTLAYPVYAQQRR
Assay: PI3Kδ Scintillation Proximity Assay
Conditions: 20 μM PIP2, 2 μM ATP, 3.4 nM PI3Kδ, 120 min, room temperature
Counter-ions that a name gives are not always drawn.
Quantity kind: IC50

Which IC50 value belongs to [2H]C([2H])([2H])c1ccc(S(=O)(=O)NC23CC(C#N)(C2)C3)cc1-c1cnc(N)c(-c2cnco2)n1 [Example 73, trifluoroacetate salt] ? ≤ 100 nM

Note, next up: `[2H]C([2H])([2H])c1ccc(S(=O)(=O)NC23CCC(O)(C2)C3)cc1-c1cnc(N)c(-c2ccnc(SC)n2)n1` ≤ 100 nM

Note, next up: Cc1ccc(S(=O)(=O)NC23CC(CO)(C2)C3)cc1-c1cnc(N)c(-c2cn(C)nc2C)n1 [Example 15, trifluoroacetate salt] ≤ 500 nM
